src = patent US7713994B2

test system: LoVo; assay: Cytotoxicity assay (SRB), LoVo; format: cell-based; conditions: Homo sapiens, LoVo, 72 h, LoVo cells, SRB, three days; read-out: In Vitro Cellular Activity IC50 LOVO
MEASURED_QUANTITY: IC50 (µM)
All answers are understood in µM, so give the number only.

test_smiles=CN1Cc2ccc(N/C=C3\C(=O)NC(=O)c4ccc(Br)cc43)cc2C1 tested_on=LoVo measured_quantity=IC50 display_unit=µM result=3.9
test_smiles=CC(=O)Nc1ccc(CN/C=C2\C(=O)NC(=O)c3ccc(-c4ccsc4)cc32)cc1O tested_on=LoVo measured_quantity=IC50 display_unit=µM result=16
test_smiles=CC1(C)Oc2cc(CN/C=C3\C(=O)NC(=O)c4ccc(Br)cc43)cc(OC(=O)C3CC3)c2O1 tested_on=LoVo measured_quantity=IC50 display_unit=µM result=41
test_smiles=O=C1NC(=O)c2ccc(-c3ccccc3)cc2/C1=C/Nc1ccc(CN2CCCCC2)cc1 tested_on=LoVo measured_quantity=IC50 display_unit=µM result=3.7
test_smiles=CN1CCN(c2ccc3c(c2)/C(=C/Nc2ccc(CN4CCCCC4)cc2)C(=O)NC3=O)CC1 tested_on=LoVo measured_quantity=IC50 display_unit=µM result=4.4

Request: Answer with the recorded IC50 for the molecule listed here: O=C1NC(=O)c2ccc(N3CCCCC3)cc2/C1=C/Nc1ccc(CN2CCCCC2)cc1
Result: 3.2

Request: Answer with the recorded IC50 for the molecule listed here: CN1CCN(c2ccc(N/C=C3\C(=O)NC(=O)c4cc(Br)ccc43)cc2)CC1
Result: 33

Request: Answer with the recorded IC50 for the molecule listed here: O=C1NC(=O)c2ccc(Br)cc2/C1=C/Nc1ccc(CN2CCC(O)CC2)cc1
Result: 6

* * *

# Lookup of reported pIC50 keyed by entry
target: cyclin E/CDK2 enzyme (Homo sapiens, UniProt P24941); construct: made in house; host or cells: Sf9 insect cells, recombinant baculovirus; experiment: CDK2 ELISA kinase assay (phospho-Rb ser 795 detection); type: biochemical; details: In Vitro Enzyme Assay, cyclin E/CDK2, read-out: CDK2 IC50
Keep it numeric: pIC50 is minus log10 of the concentration in mol/L.

test_smiles=Cc1ccc(-c2ccc3c(c2)C(=CNCc2ccc(O)c(O)c2)C(=O)NC3=O)cc1 result=4.56
test_smiles=COc1ccc(CNC=C2C(=O)NC(=O)c3ccc(C=CCc4cccc(OC)c4O)cc32)cc1O result=4.34
test_smiles=O=C1NC(=O)c2ccc(-c3ccco3)cc2/C1=C/NCc1cc(O)ccc1I result=4.46

Request: Answer with the recorded pIC50 for the compound listed here: O=C1NC(=O)c2ccc(-c3ccc[nH]3)cc2C1=CNCc1ccc(O)c(O)c1
Result: 5.59

Request: Answer with the recorded pIC50 for the compound listed here: O=C1NC(=O)c2ccc(-c3ccc4[nH]ccc4c3)cc2C1=CNCc1ccc(O)c(O)c1
Result: 5.54

Request: Answer with the recorded pIC50 for the compound listed here: COc1ccc(CNC=C2C(=O)NC(=O)c3ccc(-c4ccco4)cc32)cc1O
Result: 4.62

Request: Answer with the recorded pIC50 for the compound listed here: CN1CCN(c2ccc(NC=C3C(=O)NC(=O)c4ccc(C=Cc5ccncc5)cc43)cc2)CC1
Result: 4.80

Request: Answer with the recorded pIC50 for the compound listed here: CCN(CC)c1ccc2c(c1)C(=CNCc1ccc(O)c(O)c1)C(=O)NC2=O
Result: 5.17

Request: Answer with the recorded pIC50 for the compound listed here: CC(C)(C)c1ccc2c(c1)/C(=C/NCc1ccn(-c3ccoc3)c(=O)c1)C(=O)NC2=O
Result: 5.46

Request: Answer with the recorded pIC50 for the compound listed here: CCCOc1cnc(CN/C=C2\C(=O)NC(=O)c3ccc(C(C)(C)C)cc32)cc1O
Result: 6.02

Request: Answer with the recorded pIC50 for the compound listed here: CN1CCN(c2cnc(N/C=C3\C(=O)NC(=O)c4ccc(I)cc43)cn2)CC1
Result: 4.80

Request: Answer with the recorded pIC50 for the compound listed here: NS(=O)(=O)c1ccc(CNC=C2C(=O)NC(=O)c3ccc(-c4cc[nH]c4)cc32)cc1
Result: 4.71

Request: Answer with the recorded pIC50 for the compound listed here: COc1ccc(-c2ccc3c(c2)C(=CNCc2ccc(O)c(O)c2)C(=O)NC3=O)cc1OC
Result: 4.48
